# experimental-target: androgen receptor (AR) (Rattus norvegicus)
# Construct: purchased Invitrogen, Madison, Wis
# Sequence (P15207 651-902 limits assumed): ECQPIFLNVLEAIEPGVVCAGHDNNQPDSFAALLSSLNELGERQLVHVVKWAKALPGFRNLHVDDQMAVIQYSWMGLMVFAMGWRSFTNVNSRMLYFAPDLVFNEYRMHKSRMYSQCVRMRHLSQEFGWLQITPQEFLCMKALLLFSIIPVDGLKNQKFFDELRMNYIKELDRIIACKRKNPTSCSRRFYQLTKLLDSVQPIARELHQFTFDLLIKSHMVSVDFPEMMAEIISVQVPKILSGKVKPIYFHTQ
# method-notes: androgen receptor binding assay (fluorescence polarization, Fluormone AL Green competition)
# test-context: single determination or average of multiple determinations; read-out: Binding IC50 (AR-Binding Affinity)
Give measured pIC50 for each item. Keep answers brief.
Numbers only, as −log10 of the molar value.

Known results for compounds:
{"columns": ["smiles-representation", "pIC50"],
 "data": [
  ["C[C@H](O)[C@@H](Nc1ccc(C#N)c(Cl)c1)c1nnc(-c2ccccc2)o1", 6.52],
  ["Cc1c(N[C@@H](c2nnc(-c3ccccc3)o2)C(C)(C)O)ccc(C#N)c1Cl", 7.77],
  ["C[C@@H](O)[C@@H](Nc1ccc(C#N)c2ccccc12)c1nnc(-c2ccc(C#N)cc2)o1", 6.22],
  ["C[C@@H](O)[C@@H](Nc1ccc(C#N)c2sccc12)c1nnc(-c2ccc(C#N)cc2)o1", 9.00]
]}

# input for lookup
Exam item: Reported pIC50 for `C[C@H](O)[C@@H](Nc1ccc(C#N)c2sccc12)c1nnc(-c2ccc(C#N)cc2)o1` : what is it?
Marked response: 8.10

---

# experimental-target: androgen receptor (AR) (Rattus norvegicus)
# Construct: purchased Invitrogen, Madison, Wis
# method-notes: androgen receptor binding assay (fluorescence polarization, Fluormone AL Green competition)
Please respond with reported IC50 for every item in the list.
One number for each entry, in nM.

Please review the entries below; each comes with its answer.
{"columns": ["smiles-representation", "IC50 [nM]"],
 "data": [
  ["Cc1c(N[C@@H](c2nnc(-c3ccc(Cl)cc3)o2)C(C)(C)O)ccc(C#N)c1Cl", 0.5],
  ["Cc1c(N[C@@H](c2nnc(-c3ccc(C(F)(F)F)cc3)o2)[C@H](C)O)ccc(C#N)c1Cl", 12],
  ["Cc1c(N[C@@H](c2nnc(-c3ccc(Cl)c(Cl)c3)o2)[C@H](C)O)ccc(C#N)c1Cl", 11]
]}

Give IC50 for each listed item.
1. C[C@H](O)[C@@H](Nc1ccc(C#N)c(Cl)c1Cl)c1nnc(-c2ccccc2)o1
2. Cc1c(N[C@@H](c2nnc(-c3ccc(F)cc3)s2)[C@@H](C)O)ccc(C#N)c1Cl
3. Cc1c(N[C@@H](c2nnc(-c3ccc(F)cc3F)o2)[C@@H](C)O)ccc(C#N)c1Cl
4. Cc1c(N[C@@H](c2nnc(-c3ccc(Cl)cc3)o2)[C@H](C)O)ccc(C#N)c1Cl
5. Cc1c(N[C@@H](c2nnc(-c3ccc(F)c(O)c3)o2)[C@@H](C)O)ccc(C#N)c1Cl
6. Cc1c(N[C@@H](c2nnc(-c3cccc(O)c3)o2)[C@@H](C)O)ccc(C#N)c1Cl

Marked response:
[15, 16, 0.2, 11, 0.02, 10]

---

# experimental-target: androgen receptor (AR) (Rattus norvegicus, UniProt P15207)
# Construct: purchased Invitrogen, Madison, Wis
# Sequence (P15207 651-902 limits assumed): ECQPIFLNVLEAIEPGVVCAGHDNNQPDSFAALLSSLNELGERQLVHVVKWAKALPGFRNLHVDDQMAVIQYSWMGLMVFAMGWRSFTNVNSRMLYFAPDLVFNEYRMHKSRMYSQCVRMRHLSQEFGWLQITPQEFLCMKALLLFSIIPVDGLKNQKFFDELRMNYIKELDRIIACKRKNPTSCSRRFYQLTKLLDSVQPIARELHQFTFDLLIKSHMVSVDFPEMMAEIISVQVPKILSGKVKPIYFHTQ
# method-notes: androgen receptor binding assay (fluorescence polarization, Fluormone AL Green competition)
One threshold, 20 nM, splits the recorded IC50 values: lower ones are 1.0, equal or higher ones are 0.0.

{"columns": ["smiles-representation", "experimental-target", "assigned-label"],
 "data": [
  ["Cc1c(N[C@@H](c2nnc(-c3ccc(NC(=O)c4ccccc4)cc3)o2)[C@@H](C)O)ccc(C#N)c1Cl", "androgen receptor (AR) (Rattus norvegicus, UniProt P15207)", 0.0],
  ["Cc1c(N[C@H](CO)c2nnc(-c3ccccc3)o2)ccc(C#N)c1Cl", "androgen receptor (AR) (Rattus norvegicus, UniProt P15207)", 1.0],
  ["C[C@H](O)[C@@H](Nc1ccc(C#N)c(Cl)c1)c1nnc(-c2ccc(S(C)(=O)=O)cc2)o1", "androgen receptor (AR) (Rattus norvegicus, UniProt P15207)", 0.0],
  ["C[C@H](O)[C@@H](Nc1ccc(C#N)c2sccc12)c1nnc(-c2ccc(F)cc2)o1", "androgen receptor (AR) (Rattus norvegicus, UniProt P15207)", 1.0],
  ["COc1cccc(-c2nnc([C@H](Nc3ccc(C#N)c(Cl)c3C)[C@H](C)O)o2)c1", "androgen receptor (AR) (Rattus norvegicus, UniProt P15207)", 1.0],
  ["Cc1c(N[C@H](CCO)c2nnc(-c3ccc(C#N)cc3)o2)ccc(C#N)c1Cl", "androgen receptor (AR) (Rattus norvegicus, UniProt P15207)", 1.0],
  ["C[C@H](O)[C@@H](Nc1ccc(C#N)c2sccc12)c1nnc(-c2ccccc2)o1", "androgen receptor (AR) (Rattus norvegicus, UniProt P15207)", 1.0],
  ["CCCC(=O)Nc1ccc(-c2nnc([C@H](Nc3ccc(C#N)c(Cl)c3C)[C@@H](C)O)o2)cc1", "androgen receptor (AR) (Rattus norvegicus, UniProt P15207)", 0.0],
  ["Cc1c(N[C@@H](c2ncc(-c3ccccc3)o2)[C@H](C)O)ccc(C#N)c1Cl", "androgen receptor (AR) (Rattus norvegicus, UniProt P15207)", 1.0],
  ["Cc1c(N[C@@H](c2nc(-c3ccccc3)no2)[C@@H](C)O)ccc(C#N)c1Cl", "androgen receptor (AR) (Rattus norvegicus, UniProt P15207)", 0.0]
]}

Exam item: Dear colleague, could you confirm whether IC50 of `Cc1c(N[C@@H](c2nnc(-c3ccccc3)s2)[C@H](C)O)ccc(C#N)c1Cl` falls below 20 nM? Thanks.
Marked response: 1.0

Exam item: Please check: IC50 for `Cc1c(N[C@@H](c2nnc(-c3ccc(I)cc3)o2)[C@H](C)O)ccc(C#N)c1Cl` , strictly under 20 nM or not?
Marked response: 1.0

Exam item: Criterion: IC50 strictly below 20 nM. Is it met by `C[C@@H](O)[C@@H](Nc1ccc(C#N)c2sccc12)c1nnc(-c2ccccc2)o1` ?
Marked response: 1.0

Exam item: I wonder whether `Cc1c(N[C@@H](c2nnc(-c3ccc(Cl)c(Cl)c3)o2)[C@@H](C)O)ccc(C#N)c1Cl` has IC50 below 20 nM. Can you tell?
Marked response: 1.0

Exam item: Dear colleague, could you confirm whether IC50 of `C[C@@H](O)[C@@H](Nc1ccc(C#N)c(Cl)c1)c1nnc(-c2ccc(C#N)cc2)o1` falls below 20 nM? Thanks.
Marked response: 1.0

---

# experimental-target: androgen receptor (AR) (Rattus norvegicus)
# Construct: purchased Invitrogen, Madison, Wis
# method-notes: androgen receptor binding assay (fluorescence polarization, Fluormone AL Green competition)
test-readout: pIC50
Answers are plain numbers, as −log10 of the molar value.

{"columns": ["compound", "experimental-target", "pIC50"],
 "data": [
  ["Cc1c(N[C@@H](c2nnc(-c3ccc(F)cc3)o2)[C@@H](C)O)ccc(C#N)c1Cl [Example 19]", "androgen receptor (AR) (Rattus norvegicus)", 7.72],
  ["C[C@H](O)[C@@H](Nc1ccc(C#N)c(C(F)(F)F)c1)c1nnc(-c2ccccc2)o1 [Example 16]", "androgen receptor (AR) (Rattus norvegicus)", 7.46],
  ["Cc1c(N[C@@H](c2nnc(-c3ccccc3)o2)[C@H](C)O)ccc(C#N)c1Cl [Example 1]", "androgen receptor (AR) (Rattus norvegicus)", 8.52],
  ["CC(=O)Nc1ccc(-c2nnc([C@H](Nc3ccc(C#N)c(Cl)c3C)[C@@H](C)O)o2)cc1 [Example 70]", "androgen receptor (AR) (Rattus norvegicus)", 8.40],
  ["Cc1c(N[C@@H](c2nnc(-c3ccccc3)s2)[C@@H](C)O)ccc(C#N)c1Cl [Example 26]", "androgen receptor (AR) (Rattus norvegicus)", 8.00],
  ["Cc1c(N[C@@H](c2nnc(-c3ccc(F)cc3)o2)[C@H](C)O)ccc(C#N)c1Cl [Example 5]", "androgen receptor (AR) (Rattus norvegicus)", 7.30]
]}

Now, please, on to the next compound.
Exam item: Which value of pIC50 has been reported for C[C@H](O)[C@@H](Nc1ccc(C#N)c2ccccc12)c1nnc(-c2ccccc2)o1 [Example 13] in the records?
Marked response: 8.30
